Target: T1, human CD154 (human, UniProt P29965 113-261, limits assumed)
T1 construct: also called CD154 antigen; CD40L
T1 sequence (looked up): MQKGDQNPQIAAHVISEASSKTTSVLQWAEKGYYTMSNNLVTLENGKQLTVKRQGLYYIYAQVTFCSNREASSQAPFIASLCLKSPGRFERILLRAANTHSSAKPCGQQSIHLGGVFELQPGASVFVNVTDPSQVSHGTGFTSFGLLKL
Experiment: SPR, Biacore 3000, 25 C; antibody immobilized, CD154 antigen flowed over; average n = 6
measurementName: Kd (nM)

# binder, measurementName, assayValue
rows = [
    ("variant 26, humanized anti-human CD154 antibody derived from IDEC-131 (antibody, V domains shown) VH: EVQLQESGPGLVKPSETLSLTCTVSGDSITNGFWIWIRKPPGNKLEYMGYISYSGSTYYNPSLKSRISISRDTSKNQFSLKLSSVTAADTGVYYCAYRSYGRTPYYFDYWGQGTTLTVSS VL: DIVMTQSPSFLSASVGDRVTITCKASQHLGTAVAWYQQKPGKSPKLLIYSASNRYTGVPDRFSGSGSGTDFTLTISSLQPEDFADYFCQQYDDYPYTFGGGTKLEIK", "Kd", 0.0576),
    ("INX021 (variant 21), humanized anti-human CD154 IgG1 antibody derived from IDEC-131 (antibody, V domains shown) VH: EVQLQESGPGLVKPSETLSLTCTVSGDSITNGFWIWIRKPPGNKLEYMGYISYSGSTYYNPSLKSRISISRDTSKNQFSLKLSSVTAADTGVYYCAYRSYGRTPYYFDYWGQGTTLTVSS VL: DIVMTQSPSFLSASVGDRVTITCKASSNLGHAVAWYQQKPGKSPKLLIYSASNRYTGVPDRFSGSGSGTDFTLTISSLQPEDFADYFCQQYDDYPYTFGGGTKLEIK", "Kd", 0.0289),
]
